Here the recorded Binding Signal (fold over 6E7 parental antibody) is given for each entry.
# target_entity: T1, human TREM2 (triggering receptor expressed on myeloid cells 2) (human) (UniProt Q9NZC2)
# T1 sequence (looked up): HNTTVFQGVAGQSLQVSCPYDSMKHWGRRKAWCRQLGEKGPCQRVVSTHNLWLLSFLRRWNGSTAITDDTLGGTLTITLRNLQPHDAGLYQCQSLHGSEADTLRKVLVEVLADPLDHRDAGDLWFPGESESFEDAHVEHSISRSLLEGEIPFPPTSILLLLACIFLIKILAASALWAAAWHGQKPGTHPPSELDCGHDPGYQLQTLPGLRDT
# experiment_notes: 1st screen, 10 nM Ab
Supply the numeric figure in fold, leaving out any unit text.

The following binders have reported results that may help.
6E7 antibody affinity modulation variant V84 (antibody, V domains shown) VH: EVQLVQSGAEVKKPGESLKISCKGSGYGFTSYWIAWVRQMPGKGLEWMGIIYPGDSDTRYSPSFQGQVTISADKSISTAYLQWSSLKASDTAMYFCARQRTFYYDSSDYSDYWGQGTLVTVSS VL: DIQMTQSPSSVSASVGDRVTITCRASQGISSWLAWYQQKPGKAPKLLIYGASSLQNGVPSRFSGSGSGTDFTLTISSLQPEDFATYFCQQADSFPRTFGQGTKLEIK    1.44
6E7 antibody affinity modulation variant V63 (antibody, V domains shown) VH: EVQLVQSGAEVKKPGESLKISCKGSGYSFRSYWIAWVRQMPGKGLEWMGIIYPGDSDTRYSPSFQGQVTISADKSISTAYLQWSSLKASDTAMYFCARSRTFYYDSSDYFDYWGQGTLVTVSS VL: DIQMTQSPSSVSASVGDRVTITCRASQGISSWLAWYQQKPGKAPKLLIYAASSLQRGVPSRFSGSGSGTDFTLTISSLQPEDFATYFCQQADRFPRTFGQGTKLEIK    3.76
6E7 antibody affinity modulation variant V62 (antibody, V domains shown) VH: EVQLVQSGAEVKKPGESLKISCKGSGYSFGSYWIAWVRQMPGKGLEWMGIIYPGDSDTRYAPSFQGQVTISADKSISTAYLQWSSLKASDTAMYFCARQRTFYYDSSGYFDYWGQGTLVTVSS VL: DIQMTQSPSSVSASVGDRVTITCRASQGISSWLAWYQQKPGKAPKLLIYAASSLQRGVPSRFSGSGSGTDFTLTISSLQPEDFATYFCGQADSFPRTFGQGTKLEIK    2.49
6E7 antibody affinity modulation variant V51 (antibody, V domains shown) VH: EVQLVQSGAEVKKPGESLKISCKGSGYSFTSYWIAWVRQMPGKGLEWMGIIYPGDSDVRYSPSFQGQVTISADKSISTAYLQWSSLKASDTAMYFCARGRTFYYDSSDYFDNWGQGTLVTVSS VL: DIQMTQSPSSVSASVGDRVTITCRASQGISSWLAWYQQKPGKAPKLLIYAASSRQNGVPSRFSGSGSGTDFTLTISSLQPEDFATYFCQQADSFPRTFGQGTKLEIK    2.81
6E7 antibody affinity modulation variant V5 (antibody, V domains shown) VH: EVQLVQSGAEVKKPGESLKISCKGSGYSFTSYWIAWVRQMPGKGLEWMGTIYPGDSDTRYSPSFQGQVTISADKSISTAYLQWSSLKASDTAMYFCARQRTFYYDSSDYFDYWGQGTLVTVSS VL: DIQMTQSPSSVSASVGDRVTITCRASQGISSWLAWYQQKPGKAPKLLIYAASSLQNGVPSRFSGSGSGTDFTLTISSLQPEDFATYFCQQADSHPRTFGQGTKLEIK    2.73
6E7 antibody affinity modulation variant V37 (antibody, V domains shown) VH: EVQLVQSGAEVKKPGESLKISCKGSGYSHTSYWIAWVRQMPGKGLEWMGIIYPGDSDTRYSPSFAGQVTISADKSISTAYLQWSSLKASDTAMYFCARSRTFYYDSSDYFDYWGQGTLVTVSS VL: DIQMTQSPSSVSASVGDRVTITCRASQGISSWLAWYQQKPGKAPKLLIYAASSLQWGVPSRFSGSGSGTDFTLTISSLQPEDFATYFCQQADSYPRTFGQGTKLEIK    3.46
6E7 antibody affinity modulation variant V41 (antibody, V domains shown) VH: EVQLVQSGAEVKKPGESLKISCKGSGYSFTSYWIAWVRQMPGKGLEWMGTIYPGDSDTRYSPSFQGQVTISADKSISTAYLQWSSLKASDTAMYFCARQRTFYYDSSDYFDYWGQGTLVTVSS VL: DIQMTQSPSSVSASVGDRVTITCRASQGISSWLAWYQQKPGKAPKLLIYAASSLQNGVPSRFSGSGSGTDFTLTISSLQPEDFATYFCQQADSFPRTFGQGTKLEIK    1.74
6E7 antibody affinity modulation variant V77 (antibody, V domains shown) VH: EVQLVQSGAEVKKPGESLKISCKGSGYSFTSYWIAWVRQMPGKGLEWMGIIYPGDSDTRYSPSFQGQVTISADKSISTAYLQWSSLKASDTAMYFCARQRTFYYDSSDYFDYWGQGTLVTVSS VL: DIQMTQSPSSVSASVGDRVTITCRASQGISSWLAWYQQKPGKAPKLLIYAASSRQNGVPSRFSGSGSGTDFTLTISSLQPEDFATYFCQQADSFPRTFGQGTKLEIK    1.43
6E7 antibody affinity modulation variant V24 (antibody, V domains shown) VH: EVQLVQSGAEVKKPGESLKISCKGSGYSFTSYWIAWVRQMPGKGLEWMGIIYPGDSDVRYSPSFQGQVTISADKSISTAYLQWSSLKASDTAMYFCARSRTFYYDSSDYFDYWGQGTLVTVSS VL: DIQMTQSPSSVSASVGDRVTITCRASQGISSWLAWYQQKPGKAPKLLIYAASSLQKGVPSRFSGSGSGTDFTLTISSLQPEDFATYFCQQADSFPHTFGQGTKLEIK    2.64

Turning now to a further record.
Quick note, Binding Signal (fold over 6E7 parental antibody) for 6E7 antibody affinity modulation variant V85 (antibody, V domains shown) VH: EVQLVQSGAEVKKPGESLKISCKGSGYSFRSYWIAWVRQMPGKGLEWMGTIYPGDSDTRYSPSFQGQVTISADKSISTAYLQWSSLKASDTAMYFCARSRTFYYDSSDYFDYWGQGTLVTVSS VL: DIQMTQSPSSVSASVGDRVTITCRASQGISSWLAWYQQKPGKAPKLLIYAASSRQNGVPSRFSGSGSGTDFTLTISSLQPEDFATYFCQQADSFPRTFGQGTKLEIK landed at 5.41
